Can you tell me IC50 for the items I'm about to list?
- Tested on: osteogenically differentiating H9 hESCs
- ASSAY REMARKS: hESTo calcium assay, osteogenic differentiation of hESCs
- Type: cell-based, human
- EXPERIMENTAL CONTEXT: Homo sapiens, 480 h; H9 hESC, exposure day 0 through day 20, calcium normalized to protein; read-out: ID50 Ca2+ hESC (half-maximal inhibitory concentration of differentiation)

Reference set (6 entries):
# COMPOUND, IC50
measured = [
    ("CN1C(=O)CC[C@H]1c1cccnc1", "272 µg/mL"),
    ("O=c1ccc2ccccc2o1", "0.024 µg/mL"),
    ("CN1CCC[C@H]1c1cccnc1", "633 µg/mL"),
    ("c1ccc2ncccc2c1", "2.27 µg/mL"),
    ("CCOC(N)=O", "> 1000 µg/mL"),
    ("c1ccc2c(c1)-c1cccc3c1c-2cc1ccccc13 [Benzo[b]fluoranthene, benzo[b]fluoranthene]", "25.8 µg/mL"),
]

For the next question, use this compound.
Qu. Using known records, supply IC50 for c1ccc2c(c1)cc1ccc3cccc4ccc2c1c34 [Benzo[a]pyrene, benzo[a]pyrene]
Ans. 2.11 µg/mL

These entries and their values trace back to paper PMC10747453.
